system: A549 (lung carcinoma); experiment: In vitro antiproliferation assay, A549 cells (TABLE 1 6 point assay; TABLE 2); type: cell-based; settings: Homo sapiens, A549, 6 point assay; A549 cells; read-out: IC50, A549 cells
Field: IC50. Provide a value for each of the compounds that follow.

Below, each entry is followed by its recorded IC50 result.
Cc1cc(Nc2ncc(F)c(NC3C4C=CC(C4)C3C(N)=O)n2)ccc1NC1CCN(C)CC1 (racemic)
≤ 0.1 µM
CCS(=O)(=O)N1CCN(c2ccc(Nc3ncc(F)c(NC4C5C=CC(C5)C4C(N)=O)n3)cc2C)CC1 (racemic)
≤ 0.1 µM
Cc1cc(Nc2ncc(F)c(NC34CC5CC(CC3C5)C4)n2)ccc1N1CCN(C)CC1
1 to 10 µM
Cc1cc(Nc2ncc(F)c(N[C@H]3CCC[C@H]3C(N)=O)n2)ccc1N1CCN(C)CC1 (stereo in doubt) [Compound 15a]
0.1 to 1 µM
COC(=O)[C@@H]1CC[C@H](Nc2nc(Nc3ccc(N4CCN(C)CC4)c(C)c3)ncc2F)C1
1 to 10 µM

Parameter requested: IC50. Apply to each item below.
1. Cc1cc(Nc2ncc(F)c(N[C@H]3CCC[C@@H]3C(=O)O)n2)ccc1N1CCN(C)CC1
2. CC(=O)N1CCN(c2cccc(Nc3ncc(F)c(NC4CCCC4C(N)=O)n3)c2)CC1 (stereo not drawn)
3. Cc1cc(Nc2ncc(F)c(NC3(C(N)=O)CCCC3)n2)ccc1N1CCN(C)CC1
4. Cc1cc(Nc2ncc(F)c(N[C@H]3[C@@H](C(N)=O)[C@@H]4C=C[C@H]3C4)n2)ccc1NC1CCN(C)CC1
5. COC(=O)[C@H]1CCC[C@@H]1Nc1nc(Nc2ccc(N3CCN(C)CC3)c(C)c2)ncc1F

Key:
["> 10 µM", "1 to 10 µM", "> 10 µM", "≤ 0.1 µM", "1 to 10 µM"]

Okay, here is my list. What is IC50 for each of these?
1. CN1CCC(c2cccc(Nc3ncc(F)c(NC4C5C=CC(C5)C4C(N)=O)n3)c2)CC1 (racemic)
2. NC(=O)C1CCCC1Nc1nc(Nc2ccc(N3CCOCC3)cc2)ncc1F (stereo not drawn)
3. Cc1cc(Nc2ncc(F)c(NC3(C(=O)O)CCCC3)n2)ccc1N1CCN(C)CC1
4. COCc1cc(Nc2ncc(F)c(N[C@H]3CCC[C@H]3C(N)=O)n2)ccc1N1CCN(C)CC1 (racemic)
5. CN1CCN(c2ccc(Nc3ncc(F)c(NC4CCCC4C(N)=O)n3)cc2C(F)(F)F)CC1 (stereo not drawn)

Key:
["≤ 0.1 µM", "0.1 to 1 µM", "> 10 µM", "0.1 to 1 µM", "0.1 to 1 µM"]

Attribution: patent US7868013B2
